Assay: Chemical stability at pH 4.5 after 8 hrs
Assay type: physicochemical
Conditions: buffer, read-out: Stability

[
  {
    "smilesStructure": "O=C(OCOP(=O)(CCN1CCCNc2c1c(=O)c2=O)OCOC(=O)c1ccccc1)c1ccccc1",
    "remaining at 8 h (%)": 100
  }
]

====

Experiment: Half life in simulated intestinal fluid assessed as loss of 3-{2[8,9-Dioxo-2,6-diazabicyclo[5.2.0-[non-1(7)-en-2-yl}-3-oxido-7-oxo-7-phenyl-2,4,6-trioxa-3-phosphahept-1-yl Benzoate
Format: physicochemical

[
  {
    "smilesStructure": "O=C(OCOP(=O)(CCN1CCCNc2c1c(=O)c2=O)OCOC(=O)c1ccccc1)c1ccccc1",
    "half-life": "3.57 h"
  }
]

====

Test: Chemical stability at pH 7.4 after 12 hrs
Format: physicochemical
Conditions: buffer, read-out: Stability
readoutKind: remaining at 12 h (%)

[
  {
    "smilesStructure": "O=C(OCOP(=O)(CCN1CCCNc2c1c(=O)c2=O)OCOC(=O)c1ccccc1)c1ccccc1",
    "readoutKind": "remaining at 12 h",
    "numericResult": 75.6
  }
]

====

Assay: Chemical stability at pH 1 after 20 hrs
Format: physicochemical
Details: buffer, read-out: Stability

[
  {
    "smilesStructure": "O=C(OCOP(=O)(CCN1CCCNc2c1c(=O)c2=O)OCOC(=O)c1ccccc1)c1ccccc1",
    "remaining at 20 h [%]": 98
  }
]

====

Test: Chemical stability in simulated gastric fluid after 4 hrs
Assay type: physicochemical
Conditions: read-out: Stability

[
  {
    "smilesStructure": "O=C(OCOP(=O)(CCN1CCCNc2c1c(=O)c2=O)OCOC(=O)c1ccccc1)c1ccccc1",
    "remaining at 4 h [%]": 99.6
  },
  {
    "smilesStructure": "O=C(OCOP(=O)(CCN1CCCNc2c1c(=O)c2=O)OCOC(=O)C1CCCCC1)C1CCCCC1",
    "remaining at 4 h [%]": 91.6
  },
  {
    "smilesStructure": "CC(C)OC(=O)OCOP(=O)(CCN1CCCNc2c1c(=O)c2=O)OCOC(=O)OC(C)C",
    "remaining at 4 h [%]": 100
  }
]

====

Experiment: Chemical stability at pH 7.4 after 24 hrs
Format: physicochemical
Details: buffer, read-out: Stability

[
  {
    "smilesStructure": "O=C(OCOP(=O)(CCN1CCCNc2c1c(=O)c2=O)OCOC(=O)c1ccccc1)c1ccccc1",
    "unitsSymbol": "%",
    "remaining at 24 h": 56.7
  }
]

====

Assay: Chemical stability in simulated intestinal bile fluid after 16 hrs
Assay type: physicochemical
Details: read-out: Stability
readoutKind: remaining at 16 h

[
  {
    "smilesStructure": "O=C(OCOP(=O)(CCN1CCCNc2c1c(=O)c2=O)OCOC(=O)c1ccccc1)c1ccccc1",
    "readoutKind": "remaining at 16 h",
    "result": "98.6%"
  }
]

====

Test: Chemical stability at pH 1 after 12 hrs
Assay type: physicochemical
Settings: buffer, read-out: Stability
readoutKind: remaining at 12 h

[
  {
    "smilesStructure": "O=C(OCOP(=O)(CCN1CCCNc2c1c(=O)c2=O)OCOC(=O)c1ccccc1)c1ccccc1",
    "readoutKind": "remaining at 12 h",
    "result": "98.9%"
  }
]

====

Assay: Chemical stability in simulated intestinal bile fluid after 8 hrs
Type: physicochemical
Conditions: read-out: Stability

[
  {
    "smilesStructure": "O=C(OCOP(=O)(CCN1CCCNc2c1c(=O)c2=O)OCOC(=O)c1ccccc1)c1ccccc1",
    "remaining at 8 h": "99.3%"
  }
]

====

Assay: Cmax in Sprague-Dawley rat at 30 mg/kg, po
Type: ADME, organism-based
Design: dose 30 mg/kg, route oral
Conditions: in vivo

[
  {
    "compound": "O=c1c2c(c1=O)N(CCP(=O)(O)O)CCCN2 [PERZINFOTEL]",
    "unitsSymbol": "ng/mL",
    "Cmax": 218
  }
]

====

Assay: Chemical stability in simulated intestinal bile fluid after 20 hrs
Assay type: physicochemical
Conditions: read-out: Stability
readoutKind: remaining at 20 h

[
  {
    "smilesStructure": "O=C(OCOP(=O)(CCN1CCCNc2c1c(=O)c2=O)OCOC(=O)c1ccccc1)c1ccccc1",
    "result": "98.5%"
  }
]

====

Assay: Chemical stability at pH 1 after 24 hrs
Format: physicochemical
Conditions: buffer, read-out: Stability

[
  {
    "smilesStructure": "O=C(OCOP(=O)(CCN1CCCNc2c1c(=O)c2=O)OCOC(=O)c1ccccc1)c1ccccc1",
    "remaining at 24 h [%]": 97.9
  }
]

====

Test: Half life in Sprague-Dawley rat plasma assessed as loss of 3-{2[8,9-Dioxo-2,6-diazabicyclo[5.2.0-[non-1(7)-en-2-yl}-3-oxido-7-oxo-7-phenyl-2,4,6-trioxa-3-phosphahept-1-yl Benzoate
Assay type: ADME

[
  {
    "smilesStructure": "O=C(OCOP(=O)(CCN1CCCNc2c1c(=O)c2=O)OCOC(=O)c1ccccc1)c1ccccc1",
    "half-life": "< 4.2 min"
  }
]

====

Test: Chemical stability at pH 1 after 8 hrs
Type: physicochemical
Details: buffer, read-out: Stability
readoutKind: remaining at 8 h (%)

[
  {
    "smilesStructure": "O=C(OCOP(=O)(CCN1CCCNc2c1c(=O)c2=O)OCOC(=O)c1ccccc1)c1ccccc1",
    "numericResult": 99.3
  }
]

====

Experiment: Chemical stability at pH 7.4 after 16 hrs
Format: physicochemical
Conditions: buffer, read-out: Stability

[
  {
    "smilesStructure": "O=C(OCOP(=O)(CCN1CCCNc2c1c(=O)c2=O)OCOC(=O)c1ccccc1)c1ccccc1",
    "remaining at 16 h, %": 68.7
  }
]

====

Assay: Chemical stability in simulated intestinal bile fluid after 12 hrs
Assay type: physicochemical
Details: read-out: Stability

[
  {
    "smilesStructure": "O=C(OCOP(=O)(CCN1CCCNc2c1c(=O)c2=O)OCOC(=O)c1ccccc1)c1ccccc1",
    "remaining at 12 h": "98.6%"
  }
]

====

Assay: Chemical stability at pH 4.5 after 4 hrs
Type: physicochemical
Conditions: buffer, read-out: Stability

[
  {
    "smilesStructure": "O=C(OCOP(=O)(CCN1CCCNc2c1c(=O)c2=O)OCOC(=O)c1ccccc1)c1ccccc1",
    "remaining at 4 h": "100%"
  },
  {
    "smilesStructure": "O=C(OCOP(=O)(CCN1CCCNc2c1c(=O)c2=O)OCOC(=O)C1CCCCC1)C1CCCCC1",
    "remaining at 4 h": "99.4%"
  },
  {
    "smilesStructure": "CC(C)OC(=O)OCOP(=O)(CCN1CCCNc2c1c(=O)c2=O)OCOC(=O)OC(C)C",
    "remaining at 4 h": "100%"
  }
]

====

Test: Chemical stability at pH 6.6 after 12 hrs
Type: physicochemical
Details: buffer, read-out: Stability
readoutKind: remaining at 12 h

[
  {
    "smilesStructure": "O=C(OCOP(=O)(CCN1CCCNc2c1c(=O)c2=O)OCOC(=O)c1ccccc1)c1ccccc1",
    "result": "93.7%"
  }
]

====

Assay: Chemical stability in simulated gastric fluid after 20 hrs
Assay type: physicochemical
Conditions: read-out: Stability

[
  {
    "smilesStructure": "O=C(OCOP(=O)(CCN1CCCNc2c1c(=O)c2=O)OCOC(=O)c1ccccc1)c1ccccc1",
    "remaining at 20 h (%)": 98.3
  }
]

====

Experiment: Chemical stability at pH 4.5 after 24 hrs
Type: physicochemical
Conditions: buffer, read-out: Stability
readoutKind: remaining at 24 h

[
  {
    "smilesStructure": "O=C(OCOP(=O)(CCN1CCCNc2c1c(=O)c2=O)OCOC(=O)c1ccccc1)c1ccccc1",
    "result": "99.5%"
  }
]

====

Assay: Chemical stability at pH 6.6 after 24 hrs
Format: physicochemical
Conditions: buffer, read-out: Stability

[
  {
    "smilesStructure": "O=C(OCOP(=O)(CCN1CCCNc2c1c(=O)c2=O)OCOC(=O)c1ccccc1)c1ccccc1",
    "remaining at 24 h [%]": 87.4
  }
]

====

Assay: Chemical stability at pH 1 after 16 hrs
Format: physicochemical
Conditions: buffer, read-out: Stability

[
  {
    "smilesStructure": "O=C(OCOP(=O)(CCN1CCCNc2c1c(=O)c2=O)OCOC(=O)c1ccccc1)c1ccccc1",
    "remaining at 16 h (%)": 98.5
  }
]

====

Assay: Tmax in Sprague-Dawley rat at 30 mg/kg, po
Assay type: ADME, organism-based
Design: dose 30 mg/kg, route oral
Details: in vivo

[
  {
    "molecule": "O=c1c2c(c1=O)N(CCP(=O)(O)O)CCCN2 [PERZINFOTEL]",
    "Tmax, min": 30
  }
]

====

Test: Chemical stability at pH 7.4 after 4 hrs
Type: physicochemical
Settings: buffer, read-out: Stability

[
  {
    "smilesStructure": "CC(C)OC(=O)OCOP(=O)(CCN1CCCNc2c1c(=O)c2=O)OCOC(=O)OC(C)C",
    "remaining at 4 h [%]": 94.1
  },
  {
    "smilesStructure": "O=C(OCOP(=O)(CCN1CCCNc2c1c(=O)c2=O)OCOC(=O)C1CCCCC1)C1CCCCC1",
    "remaining at 4 h [%]": 94.4
  },
  {
    "smilesStructure": "O=C(OCOP(=O)(CCN1CCCNc2c1c(=O)c2=O)OCOC(=O)c1ccccc1)c1ccccc1",
    "remaining at 4 h [%]": 91.6
  }
]
